Just for reference, the supplement of paper PMC10065799 is where these values come from.

System: AncSZ
Assay: phosphorylation enrichment, bacterial display (enrichment ratio); higher = better substrate or ligand; peptides without Tyr show the background;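 note: 11-residue human phosphosite peptides and single-mutation variants displayed on the E. coli surface, counted by deep sequencing, each peptide's frequency after selection divided by its frequency in the unselected input library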;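 note: frequency after pTyr selection over input frequency; kinase dosed for 20-30% of maximal phosphorylation in three min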
The label depends only on phosphorylation enrichment: condition met if it is at least 0.9, condition not met if it is smaller.

stdin: Hi, just wondering whether SPFEVYVDKSQ [FLNA_Y373] shows phosphorylation enrichment of 0.9 or higher.
stdout: condition met

stdin: Hi, just wondering whether VLAAQYTTVGR [SGSH_Y240_D235V] shows phosphorylation enrichment of 0.9 or higher.
stdout: condition not met

stdin: Hi, just wondering whether YENGEYIVRQG [PRKG1_Y247_I249V] shows phosphorylation enrichment of 0.9 or higher.
stdout: condition met

stdin: Hi, just wondering whether CTTIHYNYMCT [TP53_Y234_N239T] shows phosphorylation enrichment of 0.9 or higher.
stdout: condition met

stdin: Hi, just wondering whether VDSLRYIYPKL [EIF2B3_Y92_A87V] shows phosphorylation enrichment of 0.9 or higher.
stdout: condition not met

stdin: Hi, just wondering whether PPGRSYSPCDY [TNS1_Y793_Y796C] shows phosphorylation enrichment of 0.9 or higher.
stdout: condition met

stdin: Hi, just wondering whether NVFGNYNQQPS [HNRNPA2B1_Y306_D302V] shows phosphorylation enrichment of 0.9 or higher.
stdout: condition not met

stdin: Hi, just wondering whether MGHVNYGAYIN [GLB1_Y485_R482H] shows phosphorylation enrichment of 0.9 or higher.
stdout: condition not met

stdin: Hi, just wondering whether QPGTDYKIYRY [FN1_Y1970_L1974R] shows phosphorylation enrichment of 0.9 or higher.
stdout: condition met

stdin: Hi, just wondering whether AQQPIYVRVEG [NLRP7_Y318] shows phosphorylation enrichment of 0.9 or higher.
stdout: condition met

stdin: Hi, just wondering whether CTTIHYNCMCN [TP53_Y234_Y236C] shows phosphorylation enrichment of 0.9 or higher.
stdout: condition met

* * *

Biological target: Fes (UniProt P07332)
Sequence (P07332 whole entry, looked up): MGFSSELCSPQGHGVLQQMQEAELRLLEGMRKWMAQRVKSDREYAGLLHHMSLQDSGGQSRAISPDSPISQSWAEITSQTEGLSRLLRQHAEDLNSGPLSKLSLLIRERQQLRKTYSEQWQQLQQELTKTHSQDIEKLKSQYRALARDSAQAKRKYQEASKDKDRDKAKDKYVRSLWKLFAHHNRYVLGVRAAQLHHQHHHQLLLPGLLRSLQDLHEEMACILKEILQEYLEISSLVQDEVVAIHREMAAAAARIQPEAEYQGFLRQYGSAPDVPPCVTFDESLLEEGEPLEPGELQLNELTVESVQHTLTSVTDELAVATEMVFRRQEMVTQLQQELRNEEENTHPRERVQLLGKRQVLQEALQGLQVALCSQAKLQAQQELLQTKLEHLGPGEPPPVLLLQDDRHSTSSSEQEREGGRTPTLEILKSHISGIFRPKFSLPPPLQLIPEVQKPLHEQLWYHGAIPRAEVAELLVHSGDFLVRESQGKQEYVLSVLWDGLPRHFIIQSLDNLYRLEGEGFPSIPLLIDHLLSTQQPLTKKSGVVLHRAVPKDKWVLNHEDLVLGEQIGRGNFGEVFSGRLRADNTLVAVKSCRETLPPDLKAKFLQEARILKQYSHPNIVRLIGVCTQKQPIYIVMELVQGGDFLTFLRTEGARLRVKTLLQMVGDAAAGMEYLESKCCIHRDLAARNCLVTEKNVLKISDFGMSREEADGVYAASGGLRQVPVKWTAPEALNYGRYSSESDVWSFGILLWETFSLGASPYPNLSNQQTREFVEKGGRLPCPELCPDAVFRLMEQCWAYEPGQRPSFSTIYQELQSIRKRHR
Assay: phosphorylation enrichment, bacterial display (enrichment ratio); higher = better substrate or ligand; peptides without Tyr show the background
VALUE_KIND: phosphorylation enrichment

stdin: Endpoint output: phosphorylation enrichment of MHDSNYVSKGS [PDGFRA_Y849] . Value?
stdout: 0.73

stdin: Endpoint output: phosphorylation enrichment of RRIHSYRSHLW [VHL_Y112_G114S] . Value?
stdout: 1.17

stdin: Endpoint output: phosphorylation enrichment of DVSVVYSEVKT [FCRL4_Y493] . Value?
stdout: 1.05

stdin: Endpoint output: phosphorylation enrichment of KTVQDYLKKFF [MMP8_Y36_E38K_YF] . Value?
stdout: 1.05

stdin: Endpoint output: phosphorylation enrichment of PPTYRYERGSR [INPPL1_Y663] . Value?
stdout: 0.616

stdin: Endpoint output: phosphorylation enrichment of KHCEDYVCSYN [DSC1_Y846] . Value?
stdout: 1.23

stdin: Endpoint output: phosphorylation enrichment of VGTKRYRAPEV [ACVRL1_Y375_M376R] . Value?
stdout: 0.565

stdin: Endpoint output: phosphorylation enrichment of KLKRSYSSRDI [USP8_Y717_P720R] . Value?
stdout: 0.464

stdin: Endpoint output: phosphorylation enrichment of GRVYVYRLSEQ [ITGAE_Y551] . Value?
stdout: 1.04

stdin: Endpoint output: phosphorylation enrichment of MVIPNYSSRTE [UROC1_Y185] . Value?
stdout: 0.642

stdin: Endpoint output: phosphorylation enrichment of ARGMEYLASQK [FGFR2_Y616] . Value?
stdout: 0.657

stdin: Endpoint output: phosphorylation enrichment of KMGNEYVTKGQ [MYH7_Y410_V406M] . Value?
stdout: 0.523

stdin: Endpoint output: phosphorylation enrichment of PPGRSYSPCDY [TNS1_Y793_Y796C] . Value?
stdout: 1.16

stdin: Endpoint output: phosphorylation enrichment of SDVCMYRKNIY [SYNE2_Y570] . Value?
stdout: 1.08
